Quick list: Potency per entry.
Measurement Description: qHTS profiling for inhibitors of Plasmodium falciparum proliferation (AID 504749); note: nearly all actives have a fitted effect of over 60% in size; note: potency is the fitted concentration of half-maximal effect
Details: P. falciparum in erythrocytes, SYBR Green DNA, 72 h; parasite line B
Records with an inconclusive call do not appear. Active and inactive are the calls of the source. Calls come from the whole dose curve; as a rule, active = well fitted inhibition curve with a large enough effect; inconclusive = small, poorly fitted or top-dose-only effect; inactive = flat fitted curve, though single readings scatter.

Solved entries (count: 3):
CNC(=O)Oc1ccc2c(c1)[C@]1(C)CCN(C)[C@@H]1N2C :: 2 µM (active)
COc1ccc2[nH]c(S(=O)Cc3ncc(C)c(OC)c3C)nc2n1 (stereo unspecified) :: 10 µM (active)
Cc1ccc2nc(N)[nH]c(=O)c2c1Sc1ccncc1 :: 11.2 µM (active)

**Q:** // returns reported Potency for input Cc1cc(N)c2ccccc2[n+]1CCCCCCCCCC[n+]1c(C)cc(N)c2ccccc21
**A:** 14.1 µM (active)

**Q:** Can you share its Potency? I mean this compound: COc1cc(C)c(Cc2cnc(N)nc2N)cc1OC
**A:** 11.2 µM (active)

**Q:** Look up Potency for this compound: Cc1c(O)cccc1C(=O)N[C@@H](CSc1ccccc1)[C@H](O)CN1C[C@H]2CCCC[C@H]2C[C@H]1C(=O)NC(C)(C)C
**A:** 7.94 µM (active)

###

Tested on: W2
Measurement Description: qHTS profiling for inhibitors of Plasmodium falciparum proliferation (AID 504749); note: nearly all actives have a fitted effect of over 60% in size; note: potency is the fitted concentration of half-maximal effect
Details: P. falciparum in erythrocytes, SYBR Green DNA, 72 h; series mostly up to 28.7 µM
Results filed as inconclusive are left out. Active and inactive are the calls of the source. Calls come from the whole dose curve; as a rule, active = well fitted inhibition curve with a large enough effect; inconclusive = small, poorly fitted or top-dose-only effect; inactive = flat fitted curve, though single readings scatter.
Observation Type: Potency

Consider the reported Potency for these compounds:
CN1CCCCC1CCN1c2ccccc2Sc2ccc(S(C)=O)cc21 (configuration not stated) :: 1.9 µM (active)
CCN(CC)CCNC(C(=O)OCCC(C)C)c1ccccc1 (configuration not stated) :: 4.78 µM (active)
O=Cc1ccccc1C=O :: inactive
CCCCN1CCCC[C@H]1C(=O)Nc1c(C)cccc1C :: 6.75 µM (active)
CCOC(=O)c1ccc(O)cc1 :: inactive

**Q:** Please give the measured Potency for this compound: CC(=O)Oc1ccc(C2(c3ccc(OC(C)=O)cc3)C(=O)Nc3ccccc32)cc1
**A:** inactive

**Q:** Query (compound): CCCOC(=O)c1ccccc1 ; field requested: Potency
**A:** inactive

**Q:** So what does the record say about Potency for CCCCOc1cc(C(=O)OCCN(CC)CC)ccc1N ?
**A:** inactive

###

Measurement Description: qHTS of pediatric cancer cell lines to identify multiple opportunities for drug repurposing: Primary screen for A673 cells (AID 1347092); note: nearly all actives have a fitted effect of over 45% in size
Details: A673 Ewing sarcoma viability, CellTiter-Glo ATP luminescence, 48 h; series mostly up to 46 µM
Records with an inconclusive call do not appear. Active and inactive are the calls of the source. Calls follow the shape of the dose curve; as a rule, active = well fitted cell-killing curve with a large enough effect; inconclusive = small, poorly fitted or top-dose-only effect; inactive = no such curve, though single readings can be large or run the other way.
A correct response names exactly one class from label 1 = active, label 0 = inactive

N[C@@H](CSCCCO)C(=O)O :: label 0
CC(=O)O[C@@]12CO[C@@H]1C[C@H](O)[C@@]1(C)C(=O)[C@H](O)C3=C(C)[C@@H](OC(=O)[C@H](O)[C@@H](NC(=O)OC(C)(C)C)c4ccccc4)C[C@@](O)([C@@H](OC(=O)c4ccccc4)[C@H]21)C3(C)C :: label 1
Cc1c(Cl)cccc1Nc1ccccc1C(=O)O :: label 0
C=CCn1c(=O)n([C@@H]2O[C@H](CO)[C@@H](O)[C@H]2O)c2nc(N)[nH]c(=O)c21 :: label 0
CC(=O)Oc1c(C)c(C)c2c(c1C)CC[C@@](C)(CCC[C@H](C)CCC[C@H](C)CCCC(C)C)O2 :: label 0

**Q:** Status in this test for COC(=O)[C@H]1[C@H]2C[C@@H]3c4[nH]c5cc(OC)ccc5c4CCN3C[C@H]2C[C@@H](OC(=O)COc2ccc(OC)cc2)[C@@H]1OC ?
**A:** label 0

**Q:** What did the test return for NC1[C@H]2CN(c3nc4c(cc3F)c(=O)c(C(=O)O)cn4-c3ccc(F)cc3F)C[C@@H]12 (stereo partly drawn) ?
**A:** label 1

**Q:** What outcome does the record of this test show for COc1cc(C(=O)N2CCOCC2)cc(OC)c1OC ?
**A:** label 0

###

Test system: OV90
Measurement Description: Primary qHTS to identify gynecologic anti-cancer compounds using libraries of approved drugs and bioactive compounds (AID 1345084); note: nearly all actives have a fitted effect of over 55% in size
Details: Gynecologic cancer cell panel viability, ATPlite luminescence, 48 h; series mostly up to 57.5 µM
Inconclusive results are not listed. Calls of active or inactive are those of the source. The call rests on the fitted dose curve; in most records, active means well fitted cell-killing curve with a large enough effect; inconclusive means small, poorly fitted or top-dose-only effect, or effect the other way; inactive means flat fitted curve, though single readings scatter.
Permitted responses: active, inactive

Solved cases below.
CCN(CC)C(C)CN1c2ccccc2Sc2ccccc21 (stereo unspecified) :: inactive
O=C(O)Cc1sc(-c2ccccc2)nc1-c1ccc(Cl)cc1 :: inactive
OCCN1CCN(CCCN2c3ccccc3Sc3ccc(Cl)cc32)CC1 :: active
CC(C)C(=O)c1c(C(C)C)nn2ccccc12 :: inactive
CNC(=O)Oc1ccc2c(c1)[C@]1(C)CCN(C)[C@@H]1N2C :: inactive

**Q:** I would be grateful if you could indicate the recorded call for CCN(CC)CCNC(=O)c1c(C)[nH]c(/C=C2\C(=O)Nc3ccc(F)cc32)c1C .
**A:** active

###

Test system: MKL-1
Measurement Description: qHTS assay to identify novel small-molecules to repurpose for Merkel cell carcinoma treatment (AID 1296009); note: nearly all actives have a fitted effect of over 60% in size
Details: MCC and control cell lines, CellTiter-Glo viability, 72 h; series mostly up to 46 µM
Records with an inconclusive call do not appear. Active and inactive are the calls of the source. The call rests on the fitted dose curve; in most records, active means well fitted inhibition curve with a large enough effect; inconclusive means small, poorly fitted or top-dose-only effect; inactive means flat fitted curve, though single readings scatter.
Hi! Could you answer with just one of these? true for active, false for inactive

CC(C)(C(=O)O)c1ccc(C(O)CCCN2CCC(C(O)(c3ccccc3)c3ccccc3)CC2)cc1 (stereo not given) :: false
CSc1ccc2c(c1)N(CCC1CCCCN1C)c1ccccc1S2 (stereo not given) :: true

**Q:** Can you look up the reported call for Nc1ccc(S(=O)(=O)Nc2ccccc2)cc1 for me?
**A:** false

**Q:** What did this assay record as the result for O=C1O[C@H]([C@@H](O)CO)C(O)=C1O ?
**A:** false

**Q:** Can you look up the reported call for CCCCN1CCCC[C@H]1C(=O)Nc1c(C)cccc1C for me?
**A:** false

**Q:** Test call for this compound, please: CC(C)(C)NCC(O)COc1ccc(NC(=O)NC2CCCCC2)cc1 (stereo not given)
**A:** false

**Q:** Fill in: this test's call for Oc1cn2c(n1)Nc1ccc(Cl)c(Cl)c1C2 is ___
**A:** false

**Q:** # fetch the recorded call for OCc1cc(C(O)CNCCCCCCOCCCCc2ccccc2)ccc1O (stereo not given) here
**A:** false

**Q:** Any idea what this test logged for CCCCCCCCCCCCOS(=O)(=O)O ?
**A:** false

**Q:** Hi, do you know how CN1CCOC(c2ccccc2)c2ccccc2C1 (stereo not given) came out in this test?
**A:** false

###

Measurement Description: qHTS of pediatric cancer cell lines to identify multiple opportunities for drug repurposing: Confirmatory screen for MG 63 (6-TG R) cells (AID 1347119);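 note: plate controls were DMSO neutral control for no effect and bortezomib for full effect; nearly all actives have a fitted effect of over 55% in size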
Details: MG-63 (6-TG resistant) osteosarcoma viability; series mostly up to 45.9 µM
Inconclusive results are not listed. Active and inactive are the calls of the source. Calls follow the shape of the dose curve; as a rule, active = well fitted cell-killing curve with a large enough effect; inconclusive = small, poorly fitted or top-dose-only effect, or effect the other way; inactive = no such curve, though single readings can be large or run the other way.
Observation Type: activity change, negative = cytotoxicity

Examples with answers:
O=c1cc[nH]c(=S)[nH]1 :: inactive
C[C@@H]1C[C@H]2[C@@H]3C[C@H](F)C4=CC(=O)C=C[C@]4(C)[C@@]3(F)[C@@H](O)C[C@]2(C)[C@@]1(O)C(=O)CO :: inactive
O=C1N=C(O)CN1/N=C/c1ccc(-c2ccc([N+](=O)[O-])cc2)o1 :: inactive
CCCCC/C(C=O)=C\c1ccccc1 :: inactive
CCN(CC)CCNC(=O)c1cc(Cl)c(N)cc1OC :: inactive

Continue with the compound presented below.
**Q:** Which activity change, negative = cytotoxicity is listed for C[C@](N)(Cc1ccc(O)cc1)C(=O)O ?
**A:** 15.9% [at 5.01 µM] (inactive)

###

Measurement Description: Primary fluorescence-based thiol-reactive (MSTI) qHTS assay for identification of artifact compounds. (AID 1845221);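 note: thiol-reactive compounds lower the probe fluorescence signal; nearly all actives have a fitted effect of over 65% in size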
Details: MSTI thiol-reactivity probe, 1 h; series mostly up to 53.8 µM
Inconclusive results are not listed. The source made the active and inactive calls. Calls follow the shape of the dose curve; as a rule, active = well fitted inhibition curve with a large enough effect; inconclusive = small, poorly fitted or top-dose-only effect; inactive = no such curve, though single readings can be large or run the other way.
Reply using exactly one outcome from active, inactive

Record excerpt, results attached:
c1ccc(CN(CC2=NCCN2)c2ccccc2)cc1 :: inactive
CC(C)(C)C(=O)C(Oc1ccc(Cl)cc1)n1ccnc1 (centres undefined) :: inactive
COc1ccc2cc1Oc1ccc(cc1)C[C@H]1c3c(cc4c(c3Oc3cc5c(cc3OC)CCN(C)[C@@H]5C2)OCO4)CCN1C :: inactive
CCCCc1ncc(/C=C(\Cc2cccs2)C(=O)O)n1Cc1ccc(C(=O)O)cc1 :: inactive
OCC(O)CN1CCN(c2ccccc2)CC1 (centres undefined) :: inactive

Lab note: next compound to report on.
**Q:** Call for entry O=C(CCCN1CCN(c2ccccn2)CC1)c1ccc(F)cc1 :
**A:** inactive

###

Measurement Target: Estrogen receptor (Homo sapiens)
Measurement Description: qHTS assay for small molecule agonists of estrogen receptor alpha signaling (AID 588514);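 note: 0% = vehicle only and 100% = reference agonist; nearly all actives have a fitted effect of over 70% in size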
Details: ER-alpha-UAS-bla HEK293, beta-lactamase ratio, 18 h, percent of full estradiol response, vehicle zero; series mostly up to 76.8 µM
Results filed as inconclusive are left out. Active and inactive are the calls of the source. Calls follow the shape of the full dose curve.
Observation Type: outcome

Here's what some known entries look like.
NC(=O)N/N=C/c1ccc([N+](=O)[O-])o1 :: inactive
[Cl][In]([Cl])[Cl] :: inactive
CC12CCC(CC1)C(C)(C)O2 :: inactive
CN(C)CCC=C1c2ccccc2CCc2ccccc21 :: inactive
COc1ccccc1O :: inactive
CC1(C)[C@@H]2CC[C@@]1(C)C(=O)C2 :: inactive

// moving on: another record for outcome
**Q:** Enter reported outcome observed with Estrogen receptor (Homo sapiens) for Nc1ccc(S(=O)(=O)Nc2nccs2)cc1
**A:** inactive
